Target: UniProtKB P42330
Sequence (P42330 whole entry): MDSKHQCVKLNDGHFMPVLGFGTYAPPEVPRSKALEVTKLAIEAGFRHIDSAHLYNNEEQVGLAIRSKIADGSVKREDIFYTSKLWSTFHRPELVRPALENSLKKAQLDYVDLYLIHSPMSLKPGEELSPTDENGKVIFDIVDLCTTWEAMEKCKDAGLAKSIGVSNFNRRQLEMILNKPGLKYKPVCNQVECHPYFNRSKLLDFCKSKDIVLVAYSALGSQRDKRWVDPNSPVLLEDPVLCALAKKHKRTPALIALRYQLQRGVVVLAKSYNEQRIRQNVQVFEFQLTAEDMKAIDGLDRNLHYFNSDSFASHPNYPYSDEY
Assay: Inhibition of recombinant AKR1C3 using 1-acenaphthenol as substrate at 10 uM by spectrophotometry
Active and inactive are the calls of the source. The calls are words filed in the database; no cut-off is given here.

Compound Smiles | inhibition
Nc1cccc(C(=O)Nc2ccc(O)cc2C(=O)O)c1 | 5.6%
O=C(Nc1ccc(Br)cc1C(=O)O)c1cccc(O)c1 | 89.6%
COc1cc(NC(=O)c2cccc([N+](=O)[O-])c2)c(C(=O)O)cc1OC | 3.5%
O=C(Nc1ccccc1C(=O)O)c1cccc(O)c1 | 42.1%
O=C(Nc1ccc(Br)cc1C(=O)O)c1ccc(F)c([N+](=O)[O-])c1 | 5.6%
O=C(Nc1ccc(O)cc1C(=O)O)c1cccc([N+](=O)[O-])c1 | 1.9%
O=C(Nc1ccc(Cl)cc1C(=O)O)c1cccc([N+](=O)[O-])c1 | 3.4%
CCOc1cccc(C(=O)Nc2ccc(Br)cc2C(=O)O)c1 | 19.1%
O=C(Nc1ccc(Cl)cc1C(=O)O)c1cccc(O)c1 | 77.8%
Nc1cccc(C(=O)Nc2ccccc2C(=O)O)c1 | inactive
Cc1cc(Cl)cc(C(=O)O)c1NC(=O)c1cccc([N+](=O)[O-])c1 | inactive

All values here come from ChEMBL document CHEMBL2069201.
